target: pooled human IgG (human IgG1,2,3 and 4)
readout kind: Enzyme Activity Endpoint Assay (purified): IgG (ng/µL)
Answer format: numeric, ng/µL implied, no suffix.

Fill blank: measured Enzyme Activity Endpoint Assay (purified): IgG of the protein PRT-484 (protein) MVTSVWTKGVTPPTDFRKIVDGNIAYYHAPYKAGQGWYDITKAFDGGDNLLCGAATAGNMLHWWFDQNKDQIEAYLKEHPEKQKIIFNNQELFDLKAAIDTKDDQTNSELFNYFKEKAFPYLSTKHLGVFPDHVLDMFINGYRLSLTNHGPTPVKEGSKDKRGGIFDAVFTRGVQSKLLTSRHDLKNKTLKEISDLIKQELTEGKALALSHTYANVRINHVINLWGADFDSNGNLEAIYVTDSDTNASIGMKKYFVGVNSAGKVAISAKEIEDDNIGAQVLGLFTLSTGQDIWNQTNLEHHHHHH is ____.
173

Please give the result for PRT-488 (protein) MVTSVWTKGVTPPTDFRKIVDGNIAYYHAPYKAGQGWYDITKAFDGGDNLLCGAATAGNMLHWWFDQNKDQIERYLKEHPEKQKIIFNNQELFDLKAAIDTKDSQTNSELFNYFKEKAFPYLSTKHLGVFPDHVLDMFINGYRLSLTNHGPTPVKEGSKDKRGGIFDAVFTRGVQSKLLTSRHDLKNKTLKEISDLIKQELTEGKALGLSHTYANVRINHVINLWGADFDSEGNLKAIYVTDSDTNASIGMKKYFVGVNSAGKVAISAKEIKEDNIGAQVLGLFTLSTGQDIWNQTNLEHHHHHH too.
216

Cited source: patent US20250027068
